The following molecules are shown together with reported RP-LC retention time values.
# Test Protocol: gradient 5% acetonitrile 3 min, to 50% in 2 min, to 85% in 15 min, held 3 min, 100 µL/min
# Condition Context: column: Zorbax Extend-C18 2.1 x 50 mm; eluents: water / acetonitrile, 0.1% formic acid
Write the value in s as a bare number.

>  <Molecule>
CCc1noc(COC2CCCN(C(=O)Cn3ccnc3)C2)n1 (stereo not given)

>  <Unit String>
s

>  <RP-LC retention time>
586

$$$$
>  <Molecule>
Cc1ccc(C)c(NC(=O)Cn2nc3cc(-c4ccccc4)nc(C)n3c2=O)c1

>  <Unit String>
s

>  <RP-LC retention time>
961

$$$$

May I ask what RP-LC retention time has been recorded for "COCCN(Cc1ccc(F)cc1)Cc1cc(=O)c2cc(Cl)ccc2[nH]1" ?
880

What does the record list as RP-LC retention time for "CCOc1ccc(-n2ccn3c(CCCC(=O)NC4CCCCCC4)nnc3c2=O)cc1" ?
783

What value of measured RP-LC retention time is listed for "Cc1ccccc1S(=O)(=O)N1CCC(n2cnnc2-c2ccccc2)CC1" ?
773

# query: RP-LC retention time of entry O=c1n(CC2CC2)nc2n1CCC(NS(=O)(=O)c1cccnc1)CC2 (stereo not given)
621

Data origin: the METLIN SMRT retention time set (Domingo-Almenara et al. 2019)
